- Target Entity: T1, human HER1 (human, UniProt P00533 25-1210)
- T1 construct: also called EGFR; ErbB1
- Measurement Protocol: FACS CHO-HER1, 222 nM
Endpoint Label: MCF

- 17C08 (VHH, also called 17C8) VHH: EVQLVESGGGLMQAGDSLRLSCAASGRAFSSYALGWFRRAPGKERECVAATDRLGDNTYFPDSVKGRFTISRDNAKNTLYLQMNNLKPEDTAVYYCAAGAVRYGVSTSPMNYNYWGQGTQVTVSS: 62
- 21B02 (VHH) VHH: EVQLVESGGGLVQPGGSLRLSCAASGFTFDYYTIGWFRQAPGKEREGVSCISSRDGDSYYADSVKGRFTISRDNAKNTAYLQMNSLKPEDTAVYYCAASASDYGLGLELFHDEYNYWGQGTQVTVSS: 64
- 04C07 (VHH, also called HER3MS04C07; HER3MS004C07) VHH: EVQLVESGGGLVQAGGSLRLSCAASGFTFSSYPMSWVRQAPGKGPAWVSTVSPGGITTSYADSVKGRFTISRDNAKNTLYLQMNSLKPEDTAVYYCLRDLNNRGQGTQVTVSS: 75
- 21F06 (VHH, c-myc, His6-tagged form as expressed; also called 21F6; HER3MS21F06) VHH: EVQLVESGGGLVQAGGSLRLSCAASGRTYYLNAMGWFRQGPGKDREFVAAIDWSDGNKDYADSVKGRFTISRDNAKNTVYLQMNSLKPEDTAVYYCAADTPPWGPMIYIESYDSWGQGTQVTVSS: 107

From: patent US20130136748A1
